Quick list: melting point per entry.

Reference set, count: 3
1. O=C(c1ccccc1)c1cc(Cl)cc2c(=O)cc[nH]c12; 193 to 196 °C
2. COc1cc(Nc2c(C#N)cnc3cc(/C=C/c4ccncc4)ccc23)c(Cl)cc1Cl; 218 to 219 °C
3. O=P(Oc1ccc(-c2ccc(OP(=O)(c3ccccc3)c3ccccc3)cc2)cc1)(c1ccccc1)c1ccccc1; 233 to 234 °C

# input Recall and state the measured melting point for Nc1cc(CCC(=O)N(c2ccccc2)c2ccccc2)ccc1O .
# output 170 to 172 °C

# input Recall and state the measured melting point for CCOC(=O)c1cnc(S(=O)(=O)Cc2ccccc2)n1-c1c(CC)cccc1CC .
# output 62 to 66 °C

====

MEASURED PARAMETER: melting point

Reference set, count: 5
1. O=C(CCCCN1CCCC1)NNC(=O)N1Cc2ccccc2Oc2ccc(Cl)cc21; 133 to 135 °C
2. CC(=O)c1ccc(C)c(N=C2NCCN2)c1; 160 to 162 °C
3. CCn1nc(-c2ccc(F)cc2)c(C(C)=O)c(Nc2cccc3ncccc23)c1=O; 218 °C
4. O=C(CNc1c(C(=O)O)[nH]c2cc(Cl)cc(Cl)c12)c1ccc(Cl)cc1; 279 to 283 °C
5. CC1(C)CCC(C)(C)c2cc(C(O)CCC(=O)O)ccc21 (configuration not stated); 10 °C

# input Recall and state the measured melting point for CN1C(=O)C(C(=O)Nc2ccc(Cl)c(Cl)c2)S(=O)(=O)c2cc(Cl)ccc21 (configuration not stated) .
# output 176 to 178 °C

# input Recall and state the measured melting point for COc1ccc(NC(=O)N=C2CCCN2C)cc1OC .
# output 118 to 120 °C

# input Recall and state the measured melting point for COC(=O)c1nnn(C)c1C(=O)OC .
# output 63 to 64 °C

# input Recall and state the measured melting point for OCc1cnc2ccc(F)cc2c1O .
# output 310 to 315 °C

# input Recall and state the measured melting point for O=c1[nH]c(=O)c2cc(C(c3ccccc3)n3cncn3)ccc2[nH]1 (configuration not stated) .
# output 281 °C

# input Recall and state the measured melting point for O=C(O)CCCCCCCOc1ccccc1 .
# output 67 to 68 °C

# input Recall and state the measured melting point for CCOC(=O)c1ccc(C=CC2(O)CN3CCC2CC3)cc1 (configuration not stated) .
# output 160 to 162 °C

# input Recall and state the measured melting point for CC#CCOc1ccc(S(=O)(=O)N(C)C(C(=O)NO)C(C)(C)SCCN(CC)CC)cc1 (configuration not stated) .
# output 55 to 57 °C

# input Recall and state the measured melting point for C#Cc1ccc2nc(Cl)c(S(=O)(=O)N=CN(CC(C)C)CC(C)C)n2n1 .
# output 166 to 168 °C

# input Recall and state the measured melting point for Cc1ccc(NC(=O)c2ccc(CBr)c(C(F)(F)F)c2)cc1Br .
# output 153 to 154 °C

# input Recall and state the measured melting point for CCOC(=O)N1CCCOc2cc(N)ccc21 .
# output 140 to 143 °C

# input Recall and state the measured melting point for c1ccc(COc2cc(OCc3ccccc3)c3ccncc3c2)cc1 .
# output 113 to 115 °C

# input Recall and state the measured melting point for CC(O)c1cccc([N+](=O)[O-])c1Cl (configuration not stated) .
# output 62 to 64 °C

# input Recall and state the measured melting point for O=C(NCCCCCCNC(=O)OC1CCCCC1)OC1CCCCC1 .
# output 98 to 100 °C

# input Recall and state the measured melting point for COc1ccc2c3c1OC1C(=O)C(C)(C)C(C)C4C(C2)N(C)CCC314 (configuration not stated) .
# output 246 to 248 °C

# input Recall and state the measured melting point for CN(C)C1CCc2oc3ccc(NC(=O)c4ccc(F)cc4)cc3c2C1 (configuration not stated) .
# output 137 to 138 °C

# input Recall and state the measured melting point for Oc1nc2ccc3nccnc3c2nc1O .
# output > 300 °C

====

Quick list: melting point per entry.

1) CN(NC(=O)OC(C)(C)C)C(=O)OCc1ccccc1; 60 to 65 °C
2) Cc1cc(=O)[nH]nc1-c1cccc(C(F)(F)F)c1; 224 to 227 °C
3) CN(C)C1(c2ccccc2)CC=C(c2c[nH]c3ccccc23)CC1 (stereo unspecified); 164 to 172 °C
4) Cc1cn(C2CC(O)(COCc3ccccc3)C(CO)O2)c(=O)n(COCc2ccccc2)c1=O (stereo unspecified); 83 to 84 °C
5) CS(=O)(=O)c1ccc(-n2nc(C(F)(F)F)cc2-c2ccc(-c3cocn3)cc2)cc1F; 164 to 166 °C

# input Recall and state the measured melting point for O=C(Nc1ccc(C(=O)N2Cc3cccn3Cc3ccccc32)cc1)c1ccccc1F .
# output 257 to 260 °C

# input Recall and state the measured melting point for COC(=O)C1CCC2C3CCC4CC(O)C(O)CC4(C)C3C(NCCC(C)C)CC12C (stereo unspecified) .
# output 159 to 161 °C

====

MEASURED PARAMETER: melting point

Reference set, count: 3
1. Cc1cccc(NC(=O)NC2N=C(c3ccccc3F)c3ccccc3N(Cc3nccc4c3CCCC4)C2=O)c1 (racemic); 207 to 210 °C
2. CCNC(=O)C1CCN(C(=O)c2cc(-c3ccccc3)c(=O)n3c2-c2sccc2CC3)CC1; 134 to 135 °C
3. N#Cc1cc(-c2cccs2)[nH]c1-c1cccs1; 202 to 204 °C

# input Recall and state the measured melting point for CCCCCCCCOc1ccc(-c2ncc(Br)cn2)c(F)c1 .
# output 7.16 °C

# input Recall and state the measured melting point for CCCCC(=O)Nc1ccc(N)cc1 .
# output 81 to 83 °C

# input Recall and state the measured melting point for CCN(CC)c1nc2n(n1)Cc1ccccc1-2 .
# output 234 to 236 °C

# input Recall and state the measured melting point for COc1ccc(C(C)(C)OC)cc1CN[C@H]1C2CCN(CC2)[C@H]1C(c1ccccc1)c1ccccc1 .
# output 127 °C

# input Recall and state the measured melting point for CN1c2ccc(-c3ccccc3)cc2S(=O)(=O)c2cc(-c3ccccc3)ccc21 .
# output 242 to 245 °C

# input Recall and state the measured melting point for Cc1[nH]c2ccccc2c1CCCN1CCC(c2noc3ccccc23)CC1 .
# output 110 to 112 °C

# input Recall and state the measured melting point for CCCC[C@@H](C)C(C(=O)O)C(=O)O .
# output 123 °C

====

Quick list: melting point per entry.

Reference set, count: 6
1. O=C1NCCc2sc3ccccc3c21; 143 to 144 °C
2. Cc1cccc(-c2[nH]c(C(C)C)nc2-c2ccc(F)c(-c3ccc(S(C)(=O)=O)cc3)c2)n1; 113 to 115 °C
3. O=c1ccn(C/C=C/COC(c2ccccc2)(c2ccccc2)c2ccccc2)c(=O)[nH]1; 70 to 72 °C
4. Cn1ncnc1COCc1cccc(-n2cnc3cc(C(F)(F)F)ccc32)c1; 121 to 124 °C
5. N#Cc1nn(-c2c(Cl)cc(C(F)(F)F)cc2Cl)c(N2CCCCC2)c1S(=O)(=O)C(F)(F)F; 153 to 155 °C
6. CC(C)n1c(=O)[nH]c2cccc(OCc3ccccc3)c21; 224 °C

# input Recall and state the measured melting point for Cc1ccc(CC(C(=O)NC(Cc2ccc(C#N)cc2)C(=O)N(C)C)S(=O)(=O)Nc2cccc3ccccc23)c(C)c1 (centres undefined) .
# output 140 °C

# input Recall and state the measured melting point for CC1(C)C=C(c2ccccn2)c2cc(C#N)ccc2O1 .
# output 106 to 108 °C

# input Recall and state the measured melting point for FC(F)(F)Cn1cc(C#Cc2cccc(Br)c2)cn1 .
# output 107 to 109 °C

# input Recall and state the measured melting point for Cn1c(COc2ccc(CC3SC(=O)NC3=O)cc2)nc2ccc(Oc3ccc(NC(=O)c4cc(C(C)(C)C)c(O)c(C(C)(C)C)c4)cc3)cc21 (centres undefined) .
# output 160 to 162 °C

# input Recall and state the measured melting point for NS(=O)(=O)c1ccc(-c2nc(-c3cnn4c(C(F)(F)F)cc(-c5ccc(C(F)(F)F)cc5)nc34)no2)cc1 .
# output 292 °C

# input Recall and state the measured melting point for O=C(Nc1ccc(-c2ncno2)cc1)Oc1ccc([N+](=O)[O-])cc1 .
# output 210 to 212 °C

# input Recall and state the measured melting point for COC(=O)NCCCCC(=O)OC[C@@H]1CC(c2ccc(-c3ccc(N4C[C@H](Cn5ccnn5)OC4=O)cc3F)cn2)=NO1 .
# output 90 °C

====

Quick list: melting point per entry.

1. COC(=O)c1ccc(CCCc2cnc3nc(N)nc(O)c3c2)cc1; > 250 °C
2. COC(=O)c1cc(-c2ccccc2)c(=O)n2c1-c1sccc1CC2; 116 °C
3. O=C(O)C=C1SC(Nc2c(Cl)cccc2Cl)=NC1=O; > 230 °C
4. CCCc1c(OCc2ccc(C(=O)O)cc2OCC)ccc(C(C)=O)c1O; 152 to 153 °C
5. CCCCCC(O)C=Cn1c(=O)n(CCN2CCN(c3ccccc3OC)CC2)c(=O)c2ccccc21 (stereo not given); 118 to 119 °C

# input Recall and state the measured melting point for CC(C)(C)OC(=O)N1CCN(c2ccc(OC[C@H]3CCn4cc([N+](=O)[O-])nc4O3)cc2)CC1 .
# output 207 to 208 °C

# input Recall and state the measured melting point for Cc1sc(C(=O)O)c2c1-c1c(cnn1Cc1ccccc1)CC2 .
# output 231 to 232 °C

# input Recall and state the measured melting point for Cc1ccc(CN(C(=O)C2CC2)c2nc(C)no2)cc1 .
# output 49.5 to 50.5 °C

# input Recall and state the measured melting point for CSc1nnc(SCc2ccc(Cl)cc2)s1 .
# output 77 to 78 °C

# input Recall and state the measured melting point for Cc1cc(C)cc([PH](=O)c2cc(C)cc(C)c2)c1 .
# output 82.4 °C
